# System: Malme-3M
# Assay comment: NCI tumour cell line growth inhibition, 48 h
Active and inactive are the calls of the source. No stated cut-off is given here; in the data, active = GI50 up to about 1.1 µM and inactive = higher.
The reply should be one of these categories: YES = active, NO = inactive

CCOC(=O)C1CCCCN1C(=O)Cc1c[nH]c2ccccc12 (stereo unspecified)
NO
Cc1cc(NCC2CC/C(=C\C=C\c3ccccc3)C2=O)no1 (stereo unspecified)
NO
CCOC(=O)C1(C(C)=O)OC(=O)c2cnccc21 (stereo unspecified)
NO
CC(=S)NC=C(C(N)=O)C(N)=O
NO
COC(=O)[C@@]12CC3CN(Cc4c1[nH]c1ccccc41)C2CC3=O
NO
O=C1C(F)=CC(COC(c2ccccc2)(c2ccccc2)c2ccccc2)OC1n1cc(F)c(=O)[nH]c1=O (stereo unspecified)
NO
CCOC(=O)c1c(SCC#N)n(-c2ccccc2)c(=S)n(-c2ccccc2)c1=O
NO
O=C(OCc1nc2ccc(Br)cc2c(=O)n1-c1ccccc1)c1ccccc1O
NO

Assay outcome for CC1[C@@]2(O[C@@H]3C=C4C5CCC6Cc7nc8c(nc7C[C@@]6(C)C5C[C@H](O)[C@@]4(C)[C@]13O)CC1CCc3c(cc4c5c3C(O)C[C@H]5[C@@H](C)C3(O4)OC(C)(C)CC3O)[C@]1(C)C8)O[C@@](C)(CO)C[C@@H]2O (stereo partly specified) : what was it?
YES

Thanks! And COC(=O)C[S+]([O-])c1ccccc1 (stereo unspecified) ?
NO

Param item: N#Cc1c(-c2ccco2)cc(-c2ccc(NCc3nc4ccccc4[nH]3)cc2)nc1N
NO

Same question, COc1cc(/C=C(\NC(=O)c2ccccc2)c2nc3c(O)nc(S)nc3[nH]2)cc(OC)c1OC this time
NO

Same thing, different molecule: S=C1NCN2CCN(CC2)CNC(=S)C(=S)NCN2CCN(CC2)CNC1=S
NO

Same question, O=C1C[C@H](c2ccc(O)c(O)c2)Oc2cc(O)cc(O)c21 this time
NO

Follow-up entry: CC(=O)OC[C@@H](OC(C)=O)[C@H](OC(C)=O)[C@@H]1OC(C)(C)O[C@@H]1C1SCCCS1
NO

Thanks! And CCOC(=O)C1=CN=C2C(=O)N(c3ccccc3)N(C)C2(C)C1=N (stereo unspecified) ?
NO

Now consider COc1ccc(/C=C2\CCC(CCN(C)C)(C3=CCCC3)C2=O)cc1Br (stereo unspecified) .
NO

And what about the molecule O=C1NCN(c2ccccc2)C12CCN(CCc1ccc3[nH]c(=S)[nH]c3c1)CC2 ?
NO

Try COC1=CC(=O)C2C(C1=O)C(c1ccccc1)[C@H]2C (stereo partly specified) next.
NO

Another molecule: Cc1ccc(NC(=O)C(=O)C(C#N)c2ccccc2C)cc1C (stereo unspecified)
NO

For COc1ccc2c(c1)c1c(n2CCN2CCCCC2)-c2ccccc2CC1 then?
NO

Another molecule: CCS/C(=N\c1ccccc1)SC
NO

What do we get for COc1ccc(-c2nc(N)c(C#N)c3c2CCSc2ccc(C)cc2-3)cc1OC ?
NO

Likewise for O=c1[nH]c(=O)n(C2CC(O)C(CO)O2)cc1C#Cc1cc(F)cc(F)c1 (stereo unspecified) ?
NO

Cool, now CC(C)/C=C1\CCC(CN2CCCC2)C1=O (stereo unspecified)
NO

Item: O=C(O)[C@@H]1NC[C@H]2C(Br)=NO[C@H]21
NO

----------
# Test system: CCRF-CEM
# Assay comment: NCI tumour cell line growth inhibition, 48 h
Active and inactive are the calls of the source. Cut-off read from the data, not from the text of the source: active = GI50 up to about 1.1 µM and inactive = higher.
Listing of recorded GI50 by entry.

Recorded results for 5 compounds are shown here.
CC(=O)OC1COC(N2C(=O)C(=O)c3ccccc32)C(OC(C)=O)C1OC(C)=O (stereo unspecified)
> 100 µM (inactive)
O=C(NCCn1ccnn1)Nc1ccccc1
> 100 µM (inactive)
CC(C)CS(=O)(=O)/C(=C(\c1ccc(Br)cc1)S(=O)(=O)CC(C)C)c1ccc(Br)cc1
> 100 µM (inactive)
COC(=O)CCC(=O)NC1=C(Nc2ccccc2)C(=O)c2ccccc2C1=O
9.95 µM (inactive)
C=CCC(OCCOCC)c1cc(OCCOCC)ccc1OC (stereo unspecified)
> 100 µM (inactive)

Next:
Fill blank: measured GI50 of the compound CCN(CC)CCNC(=O)c1cn2c(ccc3sc4ccccc4c(=O)c32)n1 is ____.
2.74 µM (inactive)

----------
Collected GI50 values appear next to each entry.
# System: OVCAR-4
# Assay comment: NCI tumour cell line growth inhibition, 48 h
Calls of active or inactive are those of the source. Cut-off read from the data, not from the text of the source: active = GI50 up to about 1.1 µM and inactive = higher.

Check out these entries, answers already filled in.
COc1cc(NCCC2CCCCN2)c2ncccc2c1 (stereo not given)
> 70.5 µM (inactive)
CCOC(=O)NC(=O)c1cn(CCCOC(=O)CCCCCCCCCCC(=O)OCCCn2cc(C(=O)NC(=O)OCC)c(=O)n(C)c2=O)c(=O)n(C)c1=O
> 100 µM (inactive)
CC1CN(CCO)CCN1c1ccccc1 (stereo not given)
> 100 µM (inactive)
CC(C)(C)OC(=O)N(O)CCCn1cnc2c(N)ncnc21
> 100 µM (inactive)
Cc1ccc(C)c(NC(=O)CC/C(=N\NC(=O)C(=O)NN)C(C)C(=O)c2ccc(O)cc2)c1 (stereo not given)
> 100 µM (inactive)
COC(=O)CCCC(=O)NC1=C(Nc2ccccc2)C(=O)c2ccccc2C1=O
19.3 µM (inactive)

For COc1ccc(-c2nc(N)c(C#N)c3c2CCSc2ccc(C)cc2-3)cc1OC , what is its reported GI50?
16.7 µM (inactive)

Same for O=S1(=O)N=C(NCc2c[nH]c3ccccc23)N(c2ccccc2)c2ccncc21
> 100 µM (inactive)

Cool, now C#C[C@]1(O)CC[C@H]2[C@@H]3CCC4=C/C(=N/CCOC(=O)c5cccc6c(=O)c7ccccc7[nH]c56)CC[C@@H]4[C@H]3CC[C@@]21C
32.7 µM (inactive)

Another compound to check: Cc1[nH]c(=O)[nH]c(=S)c1C(=O)NC(C)(CO)CO
> 100 µM (inactive)

----------
# Test system: KM12
# Assay comment: NCI tumour cell line growth inhibition, 48 h
Calls of active or inactive are those of the source. No stated cut-off is given here; in the data, active = GI50 up to about 1.1 µM and inactive = higher.
Collected GI50 values appear next to each entry.

Cc1cc(NCC2CC/C(=C\C=C\c3ccccc3)C2=O)no1 (stereo not given)
41.8 µM (inactive)

Requested field: GI50. Item: C1=C[C@@H]2c3ccc4cnccc4c3NC[C@@H]2C1
86.3 µM (inactive)

Note, next up: O=C1OC(CCCl)(c2ccccc2)CC1CN1CCOCC1 (stereo not given)
20.2 µM (inactive)

Try Cc1cc2c(cc1-c1cc3c(cc1C)C(C(C)C)=C(O)C(=O)/C3=C\NCC1CCCN3CCCCC13)/C(=C/NCC1CCCN3CCCCC13)C(=O)C(O)=C2C(C)C (stereo not given) next.
5.15 µM (inactive)

Another molecule: CCOC(=O)CN(Cn1cncn1)Cn1cncn1
20.2 µM (inactive)

And the next one, C=C1C(=O)OC2CC1C(OC(=O)/C=C/c1ccccc1)C/C(C)=C/CC/C(C)=C/CCC2(C)O (stereo not given) ?
1.71 µM (inactive)

Note, next up: CCN(CC)CC(O)C1CCC(c2ccccc2)CC1 (stereo not given)
24 µM (inactive)

Let us now turn to COc1ccc(/N=N/c2c(N)nn(C)c2N)cc1
> 100 µM (inactive)

Also check O=C1CC[C@@H](NC(=O)Cc2ccccc2)C(=O)N1
> 100 µM (inactive)

Quick one: COc1ccccc1OCC(=N/NC(=O)c1ccncc1)/N=C/c1ccncc1
> 100 µM (inactive)

----------
# System: HCT-116
# Assay comment: NCI tumour cell line growth inhibition, 48 h
Counter-ions that a name gives are not always drawn. Calls of active or inactive are those of the source. Rule as the data show it: active = GI50 up to about 1.1 µM and inactive = higher.
Entries and their GI50 values follow.

Worked set:
C/C(=N\Nc1nc2ccccc2s1)c1cnccn1
1.5 µM (inactive)
O=C1Sc2ccccc2C(=O)N2CSCC12 (stereo unspecified)
> 100 µM (inactive)
C1=C[C@@H]2c3ccc4cnccc4c3NC[C@@H]2C1
> 100 µM (inactive)
COP(=O)(OC)C(Cc1c[nH]c2ccccc12)NC(=O)OCc1ccccc1 (stereo unspecified)
> 100 µM (inactive)
CCOC(=O)CN(Cn1cncn1)Cn1cncn1
30.8 µM (inactive)

Item under review: CN(C)CCNCCCNc1c2ccccc2nc2cccc([N+](=O)[O-])c12 . Reported GI50?
< 0.0161 µM (active)

Param item: O=C(C#Cc1cnc(O)nc1O)c1ccccc1
7 µM (inactive)

Repeat with O=C(/C=C/c1ccccc1)c1ccc(NCc2nc3ccccc3[nH]2)cc1
3.22 µM (inactive)

Would you kindly repeat that for C#CCNC(=O)CCC(N)C(=O)O (stereo unspecified) ?
> 100 µM (inactive)

What about CC1CC[C@@]2(OC1)OC1C[C@H]3[C@@H]4C/C(=N\N(C)C)[C@@]5(O)CC(O)CC[C@]5(C)[C@H]4CC[C@]3(C)C1[C@@H]2C (stereo partly specified) ?
24.7 µM (inactive)

Can you check COc1cc(NCCC2CCCCN2)c2ncccc2c1 (stereo unspecified) next?
36 µM (inactive)

Would you kindly repeat that for CC(=O)Nc1ccc(-c2nc3ccccc3s2)cc1O ?
56.1 µM (inactive)

Next molecule: CN(N=O)C(=O)N[C@H]1C(O)O[C@H](CO)[C@@H](O)[C@@H]1O (stereo partly specified)
573 µM (inactive)

Now give it for O=C(c1ccco1)N(C(=O)N1CCN(c2ccccc2)CC1)S(=O)(=O)c1ccccc1 too.
21.3 µM (inactive)

Consider next the molecule COc1ccc2cc1Oc1ccc(cc1)CC1c3cc4c(cc3CCN1C)Oc1c(OC)cc3c(c1O4)C(C2)N(C)CC3 (stereo unspecified) in the same way.
1.7 µM (inactive)

O=C(O)[C@@H]1NC[C@H]2C(Br)=NO[C@H]21 ?
> 100 µM (inactive)

Try the molecule COc1ccc([C@H]2[C@H](C)C3=Nc4ccccc4CN32)cc1
33.8 µM (inactive)

Same again, this time with NCCS [CYSTEAMINE HYDROCHLORIDE]
> 100 µM (inactive)

Input Cn1nc(C(=O)N2CC(CCl)c3c2cc([N+](=O)[O-])c2ccccc32)cc1NC(=O)Nc1cc(C(=O)N2CC(CCl)c3c2cc([N+](=O)[O-])c2ccccc32)nn1C (stereo unspecified)
> 100 µM (inactive)

Same read-out for O=C1C2=C(c3ccccc31)C(c1ccc(Cl)cc1)N1C(=O)CCSC1=N2 (stereo unspecified) ?
69.2 µM (inactive)

Follow-up item: Cc1ccc(C(=O)/C=C/N2CCN(c3cccc(C(F)(F)F)c3)CC2)cc1
16.7 µM (inactive)

All values here come from ChEMBL document CHEMBL1201862.
